- EXPERIMENT DESCRIPTION: Components of the Cytosolic LPS Sensing Pathway: Gene Identification via Genome-wide siRNA Screen;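 note: robust z of the log signal after scaling to non-targeting control siRNA wells of the plate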
- ASSAY CONTEXT: RAW264.7 macrophages, IL-1a HTRF, actives lie on both sides, screened at 100 nM (by protocol), cells primed 5 h with Pam3CSK4 first
The whole screen tested about 53,000 sequences, of which about 3,700 (7%) were called active.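 Rule for the calls: active = gene knockdowns whose robust z-score for IL-1 alpha signal is at least 2 or at most -2, so actives lie on both sides; inactive = the rest.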 This excerpt belongs to a sample that is enriched for actives.
Labels: True (active), False (inactive)

>>> class_name("GGAAGAGAGCGAUUAAAUUTT against Rsrc2")
"False"
>>> class_name("GCAUGAAGAGGCAAAGGCUTT against Igfbp1")
"False"
>>> class_name("CGAUGCAAAAAGAAUAGACTT against Mark1")
"False"
>>> class_name("GGUGGACAAGGAGAGGACUTT against H2-Q1")
"False"
>>> class_name("CCUUCUAGUGCAUCAGUGGTT against Olfr890")
"False"
>>> class_name("GGGCUGUGGAAACAAUUUATT against Zpld1")
"True"
>>> class_name("CCAUGGUACUAAUGUAAAUTT against Eef1e1")
"False"
>>> class_name("GGUCUCAGUUUCUCAGAAUTT against Siglece")
"False"
>>> class_name("GGCUGGCAAACUCAAAAAATT against Zfp385c")
"False"
>>> class_name("GGGUCAAAUCUGACUGCAUTT against Klf10")
"False"
>>> class_name("CCUAACACUAGUCUCAGAATT against Olfr873")
"False"
>>> class_name("GGGUUAUGGCUGGAAUCUGTT against Slc12a9")
"False"
>>> class_name("GCUGAAUGAUAUGGAACCUTT against Vapa")
"False"
>>> class_name("CCAUGAGUUCAGAUGAUGATT against Ints10")
"False"
>>> class_name("GGACAAUCCAUAAGUUAAATT against Scai")
"False"
>>> class_name("AUAACCUAACUCACAACAATT against Olfr304")
"False"
>>> class_name("GGUGAUUUUCGAUAUACACTT against Dclre1b")
"False"
>>> class_name("GCUCAUCGUGUUCGCUAUATT against Tuft1")
"False"
>>> class_name("CCACAAGUUCACUAAGGAGTT against Six3")
"False"
>>> class_name("GCUUGUGUCACCUACGGAATT against Mterf2")
"False"
>>> class_name("CGUUAGUCUGUGAAUGCACTT against Emc10")
"False"
>>> class_name("GGUAUAGCCACAGGUACAUTT against Phxr5")
"False"
>>> class_name("GGUUCAUCUUUCAAAUCUATT against Kpna4")
"False"
>>> class_name("GGUCGUGUACAAGUACAUATT against Mrps24")
"True"
>>> class_name("CCAUUACAUCAGCUUUAUUTT against Pamr1")
"False"
>>> class_name("CCCAAGAUGGUAGCAGACATT against Tbxas1")
"False"
>>> class_name("UCCGUUGGAGUAUCGAUGUTT against Trp53rka")
"False"
>>> class_name("GGUGAAUAAAGACCGAGGUTT against Anks6")
"False"
>>> class_name("GCUACUGCAUUCUCUAUCATT against Actl9")
"False"
>>> class_name("GGAGGACAACAGCAAAACATT against Atoh1")
"False"
>>> class_name("GCAACCUGCAGGCAGUAACTT against Nolc1")
"False"
>>> class_name("GGACACCAAAGUGAAUACATT against Cdhr5")
"False"

====

- EXPERIMENT DESCRIPTION: Components of the Cytosolic LPS Sensing Pathway: Gene Identification via Genome-wide siRNA Screen;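 note: robust z of the log signal after scaling to non-targeting control siRNA wells of the plate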
- ASSAY CONTEXT: RAW264.7 macrophages, IL-1a HTRF, actives lie on both sides, screened at 100 nM (by protocol), cells primed 5 h with Pam3CSK4 first
Screen size: about 53,000 sequences; about 3,700 (7%) were called active. The full list was thinned out, with actives kept by preference.
QUANTITY: z-score

>>> test_result("GGUUCUGAAAUGCAUGGAGTT against Rnf6")
1.76
>>> test_result("GCGCAAUACGUGGGUUUGUTT against Shisal2b")
0.254
>>> test_result("GGUCUGGUCAUCUCAGUUUTT against Tmem159")
3.53
>>> test_result("GGAAGAUGAAGAUGAGAAUTT against Igbp1b")
-1.24
>>> test_result("CGAGGACUCAAUAGUAGCCTT against Proser3")
-0.678
>>> test_result("CGGACAGAUACAAUAGCUATT against Zc3h4")
-1.53
>>> test_result("GCCCUUAGAGAGAAUUUAUTT against Lmo2")
0.63
>>> test_result("GGAUGAGUUUGACAAGCUGTT against Rhou")
-0.735
>>> test_result("GGACACCUACCAAAAGUUATT against Cd9")
0.432
>>> test_result("UCCAGAGGAUCCGCUGUGATT against Krt74")
-0.632
>>> test_result("GGAAGUUAGUUUCGUUUUATT against Rprd1b")
2.03
>>> test_result("GGCCUUUACAUGUCCCAGCTT against BC002059")
0.456
>>> test_result("GGACAAACAGCUUCAAGAUTT against Psmd2")
-2.26
>>> test_result("GCUCUGUUGUGGAUGCAAUTT against Lonrf2")
0.859
>>> test_result("GCUCUUUGGUCGAGAACCATT against Mup5")
-2.42
>>> test_result("GGUAAAAACUUUCCUUUAGTT against Prph2")
1.48
>>> test_result("GGGAAGAAGAAAAAGAUGATT against Peak1")
-0.506
>>> test_result("GGCAAACGAAACACUAGCATT against Cacna1d")
4.94
>>> test_result("GGCUUUUCACAAAACUGUUTT against Zfp120")
1.07
>>> test_result("GGAGGAACAGAAGAAACUCTT against Tma7")
-0.0481
>>> test_result("GGAUUAAUGUUUCCUGACUTT against Mturn")
0.704
>>> test_result("GGACGAUUCCCAGUUUCUGTT against Phf1")
1.25

====

- EXPERIMENT DESCRIPTION: Components of the Cytosolic LPS Sensing Pathway: Gene Identification via Genome-wide siRNA Screen;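 note: robust z of the log signal after scaling to non-targeting control siRNA wells of the plate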
- ASSAY CONTEXT: RAW264.7 macrophages, IL-1a HTRF, actives lie on both sides, screened at 100 nM (by protocol), cells primed 5 h with Pam3CSK4 first
Screen size: about 53,000 sequences; about 3,700 (7%) were called active. Many of the other results were omitted from the sample, so actives are more common in it than they were.
// classify(record): look up z-score in ranges range 1 = under -0.9, range 2 = from -0.9 up to 0.1, range 3 = 0.1 and over

>>> class_name("CGUGAAGAUUCUUAAGGCGTT against Ppil1")
"range 3"
>>> class_name("GGAUCACCUAACGUAAUGGTT against Phlda1")
"range 1"
>>> class_name("GCAACUGCCUAGGCUUGAUTT against Slc30a7")
"range 3"
>>> class_name("GGCCUGCCGGAGAUAAAGATT against Tex43")
"range 2"
>>> class_name("GGAUCUUCUGGAUAGAAUGTT against Prc1")
"range 3"
>>> class_name("GUUAGAUGCCCUCAAGUUCTT against Trappc6a")
"range 2"
>>> class_name("GUCCUAAAACGAGUGAGAGTT against Trib3")
"range 2"
>>> class_name("GGUUAUGAUCGGCAUCGCUTT against Fam24a")
"range 1"
>>> class_name("GAGCCAAGUACCAUCUAUATT against Olfr389")
"range 3"
>>> class_name("CCGCUACAGGUUUACCAAGTT against Rhox8")
"range 3"
>>> class_name("GGCUAAAACAAGUGAAUGGTT against Gli3")
"range 2"
>>> class_name("GCCAUUUUAGAGCAGAUCCTT against Rundc3a")
"range 1"
>>> class_name("GGUGGAGAACCAUAUCACATT against Abcg4")
"range 3"
>>> class_name("GCCACAUUCUUCUCAACCUTT against Tas2r106")
"range 1"
>>> class_name("GCCACUCACCUAGCAAAGATT against Fbrsl1")
"range 1"
>>> class_name("GGGCAAUGUGUUUAUGUAUTT against Tmem30a")
"range 2"
>>> class_name("UAGUGAGCAAGGAAUUGGATT against Gm20815")
"range 2"
>>> class_name("CGCACAUGAAGCCACAUAUTT against Plekhb1")
"range 2"
>>> class_name("GCAACUCUGAGGUUGCUAGTT against Pgam1")
"range 2"
>>> class_name("GGCCAUUCAGAAGAUGCAGTT against Snapc2")
"range 2"
>>> class_name("CCGAGUUUGGGAAUAACUUTT against Cacna1a")
"range 3"
>>> class_name("GGCAGGCAAUUCAAACAAUTT against Orm1")
"range 1"
>>> class_name("GGCAGACAUAAGGCUUUCUTT against Olfr1056")
"range 2"
>>> class_name("GGAAAGUUUUGGCGACUACTT against Fbxw19")
"range 3"
>>> class_name("GCAAUAGAAAAGUCCGUGGTT against Rbsn")
"range 1"
>>> class_name("GGAAGGUUUGUUUUGUUUGTT against Slc24a3")
"range 2"
>>> class_name("CCGAAAAUGUGGUAAAGUATT against Smg1")
"range 3"
>>> class_name("GCUGUACCACAACUAGUCATT against Cdc7")
"range 3"
>>> class_name("GGUAAUGAAGGAACUGGAUTT against S100a1")
"range 2"
>>> class_name("CCAUUCUCAGGCAAAUACUTT against Pid1")
"range 3"
>>> class_name("CGGAUUACAAACCAUAAAATT against Mex3b")
"range 2"
>>> class_name("GUCACUGAAUUUCUCCUCUTT against Olfr104-ps")
"range 1"
>>> class_name("GCUGUGAAAACGCAGUUACTT against Ccser2")
"range 3"
>>> class_name("CCAUCCGUAACAUCGACUGTT against Mboat7")
"range 2"
